Measured values drawn from patent US10450301B2 for this set.

molecular target: ASK1 (Homo sapiens (Human), UniProt Q99683)
Sequence (Q99683 whole entry): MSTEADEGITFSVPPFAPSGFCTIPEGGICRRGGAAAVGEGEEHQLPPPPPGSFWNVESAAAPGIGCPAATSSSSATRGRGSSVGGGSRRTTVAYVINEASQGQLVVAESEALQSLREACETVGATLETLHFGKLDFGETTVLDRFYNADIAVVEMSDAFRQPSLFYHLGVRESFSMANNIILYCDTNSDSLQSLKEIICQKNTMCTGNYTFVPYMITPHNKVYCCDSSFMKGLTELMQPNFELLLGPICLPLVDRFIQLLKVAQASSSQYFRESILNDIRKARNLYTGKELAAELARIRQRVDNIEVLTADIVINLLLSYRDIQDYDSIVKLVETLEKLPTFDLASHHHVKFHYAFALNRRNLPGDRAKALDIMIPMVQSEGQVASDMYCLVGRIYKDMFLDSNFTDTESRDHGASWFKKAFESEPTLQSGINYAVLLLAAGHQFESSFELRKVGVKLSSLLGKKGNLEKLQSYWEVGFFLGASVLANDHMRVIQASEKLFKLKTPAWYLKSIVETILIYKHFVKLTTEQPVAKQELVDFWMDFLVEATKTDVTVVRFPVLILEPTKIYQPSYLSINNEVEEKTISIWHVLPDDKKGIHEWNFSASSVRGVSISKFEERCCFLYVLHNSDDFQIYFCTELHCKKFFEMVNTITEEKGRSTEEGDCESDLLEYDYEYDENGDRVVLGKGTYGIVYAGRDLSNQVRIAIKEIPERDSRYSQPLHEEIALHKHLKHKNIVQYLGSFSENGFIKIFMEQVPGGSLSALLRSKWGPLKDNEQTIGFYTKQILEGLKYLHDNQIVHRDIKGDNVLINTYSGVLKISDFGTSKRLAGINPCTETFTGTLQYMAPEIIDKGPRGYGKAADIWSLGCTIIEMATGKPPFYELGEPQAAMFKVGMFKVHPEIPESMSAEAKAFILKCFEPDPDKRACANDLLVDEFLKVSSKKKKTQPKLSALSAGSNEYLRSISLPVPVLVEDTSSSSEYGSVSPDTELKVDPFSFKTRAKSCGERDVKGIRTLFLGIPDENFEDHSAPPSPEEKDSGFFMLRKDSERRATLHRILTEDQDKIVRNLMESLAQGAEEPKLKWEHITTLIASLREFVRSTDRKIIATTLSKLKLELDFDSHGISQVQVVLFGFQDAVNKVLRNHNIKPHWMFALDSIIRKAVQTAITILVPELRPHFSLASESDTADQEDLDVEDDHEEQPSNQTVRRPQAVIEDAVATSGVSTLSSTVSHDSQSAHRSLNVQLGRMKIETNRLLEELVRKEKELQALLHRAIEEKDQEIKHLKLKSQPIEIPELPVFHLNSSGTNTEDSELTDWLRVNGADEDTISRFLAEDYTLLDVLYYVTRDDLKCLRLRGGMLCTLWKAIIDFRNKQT
pIC50: −log10 of the molar value.
Reported pIC50 values are given for each entry in this list.

Observe how each entry below is paired with its result.
- COMPOUND_SMILES: "COCCN1CCc2cnc(C(=O)Nc3cccc(-c4nnnn4[C@H](C)CO)n3)cc2C1"
  TARGET_OF_ASSAY: "ASK1 (Homo sapiens (Human), UniProt Q99683)"
  pIC50: "8.00 to 9.00"
- COMPOUND_SMILES: "C[C@H](CO)n1nnnc1-c1cccc(NC(=O)c2cc3c(cn2)CCN(C(=O)OC(C)(C)C)C3)n1"
  TARGET_OF_ASSAY: "ASK1 (Homo sapiens (Human), UniProt Q99683)"
  pIC50: "8.00 to 9.00"
- COMPOUND_SMILES: "CCCOC(=O)N1CCc2cnc(C(=O)Nc3cccc(-c4nnnn4[C@H](C)CO)n3)cc2C1"
  TARGET_OF_ASSAY: "ASK1 (Homo sapiens (Human), UniProt Q99683)"
  pIC50: "8.00 to 9.00"
- COMPOUND_SMILES: "C[C@H](CO)n1nnnc1-c1cccc(NC(=O)c2cc3c(cc2F)CCN(C(=O)N2CCCC2)C3)n1"
  TARGET_OF_ASSAY: "ASK1 (Homo sapiens (Human), UniProt Q99683)"
  pIC50: "8.00 to 9.00"
- COMPOUND_SMILES: "CCOC(=O)N1Cc2ccc(C(=O)Nc3cccc(-c4nncn4C(C)C)n3)cc2C1"
  TARGET_OF_ASSAY: "ASK1 (Homo sapiens (Human), UniProt Q99683)"
  pIC50: "6.00 to 7.00"

Short answer on ASK1 (Homo sapiens (Human), UniProt Q99683) for C[C@H](CO)n1nnnc1-c1cccc(NC(=O)c2cc3c(cn2)CCN(C(=O)N(C)C2CCCC2)C3)n1 , pIC50: < 6.00

Short answer on ASK1 (Homo sapiens (Human), UniProt Q99683) for COCCS(=O)(=O)N1Cc2ccc(C(=O)Nc3cccc(-c4nncn4C(C)C)n3)cc2C1 , pIC50: 6.00 to 7.00

Short answer on ASK1 (Homo sapiens (Human), UniProt Q99683) for CC(C)OC(=O)N1CCc2cnc(C(=O)Nc3cccc(-c4nnnn4[C@H](C)CO)n3)cc2C1 , pIC50: 8.00 to 9.00
